Attribute: pIC50
Target: Human ATX protein (Homo sapiens)
Construct: made in house
Assay: Autotaxin (ATX) assay, FRET with FS-3 substrate
Format: biochemical
Settings: upper bound bins (no greater than 100, 250 or 500 nM); FS-3 2 μM, ATX 1.0 μg/mL
pIC50: −log10 of the molar value.
Parameter: pIC50

{"Compound": "O=C(O)c1nn2c(c1F)CN(C(=O)OCc1cc(C(F)(F)F)cc(C(F)(F)F)c1)CCC2", "Result": "≥ 7.00"}
{"Compound": "CC(c1cc2n(n1)CCN(C(=O)OCc1cc(C(F)(F)F)cc(C(F)(F)F)c1)C2)N1CCC(C(=O)O)CC1 (stereo not drawn)", "Result": "≥ 6.60"}
{"Compound": "O=C(OCc1cc(Cl)cc(Cl)c1)N1CCCn2nc(C(=O)N3CCC(C(F)(F)F)CC3)cc2C1", "Result": "≥ 7.00"}
{"Compound": "CCOC(=O)c1cc2n(n1)CCN(C(=O)OCc1cc(C(F)(F)F)cc(C(F)(F)F)c1)C2", "Result": "≥ 7.00"}
{"Compound": "CCOC(=O)c1cc2n(c1)CCCN(C(=O)OCc1cc(Cl)cc(Cl)c1)C2", "Result": "≥ 6.30"}
{"Compound": "O=C(OCc1cc(Cl)cc(C(F)(F)F)c1)N1CCCn2nc(C(=O)N3CCN4CCC[C@@H]4C3)cc2C1", "Result": "≥ 7.00"}
{"Compound": "C[C@@H]1CNC[C@@H](C)N1C(=O)c1cc2n(n1)CCCN(C(=O)OCc1cc(C(F)(F)F)cc(C(F)(F)F)c1)C2", "Result": "≥ 7.00"}
{"Compound": "CN(C)C(=O)c1cc2n(n1)CCN(C(=O)OCc1cc(C(F)(F)F)cc(C(F)(F)F)c1)C2", "Result": "≥ 6.60"}
{"Compound": "O=C(OCc1cc(Cl)cc(C(F)(F)F)c1)N1CCn2nc(C(=O)N3CCNCC3)cc2C1", "Result": "≥ 7.00"}
{"Compound": "CC(C)(C)OC(=O)N1CCC(c2cc3n(n2)CCCN(C(=O)OCc2cc(C(F)(F)F)cc(C(F)(F)F)c2)C3)C1 (stereo not drawn)", "Result": "≥ 7.00"}
{"Compound": "CC1COCCN1CC(=O)c1cc2n(n1)CCCN(C(=O)OCc1cc(Cl)cc(C(F)(F)F)c1)C2 (stereo not drawn)", "Result": "≥ 7.00"}
{"Compound": "O=C(OCc1cc(Cl)cc(Cl)c1)N1CCCn2nc(C(=O)N3CCCCC3)cc2C1", "Result": "≥ 7.00"}
{"Compound": "O=C(OCc1cc(C(F)(F)F)cc(C(F)(F)F)c1)N1CCCn2nc(S(=O)(=O)N3C4CCCC3CC4)cc2C1", "Result": "≥ 7.00"}
{"Compound": "CC(=O)c1cc2n(n1)CCN(C(=O)OCc1cc(C(F)(F)F)cc(C(F)(F)F)c1)C2", "Result": "≥ 6.30"}
{"Compound": "NC(C(=O)O)c1cc2n(n1)CCCN(C(=O)OCc1cc(C(F)(F)F)cc(C(F)(F)F)c1)C2 (stereo not drawn)", "Result": "≥ 7.00"}
{"Compound": "O=C(O)c1nn2c(c1Cl)CN(C(=O)OCc1cc(C(F)(F)F)cc(C(F)(F)F)c1)CC2", "Result": "≥ 6.60"}
{"Compound": "CC(C)N1CCN(c2cc3n(n2)CCCN(C(=O)OCc2cc(C(F)(F)F)cc(C(F)(F)F)c2)C3)CC1", "Result": "≥ 7.00"}
{"Compound": "CC1(C)C(NCc2cc3n(n2)CCCN(C(=O)OCc2cc(C(F)(F)F)cc(C(F)(F)F)c2)C3)CC1C(=O)O (stereo not drawn)", "Result": "≥ 6.30"}
{"Compound": "O=C(OCc1cc(Cl)cc(C(F)(F)F)c1)N1CCn2c(nnc2C(F)(F)F)C1", "Result": "≥ 6.30"}
{"Compound": "CC1(C)CNCCN1C(=O)c1cc2n(n1)CCN(C(=O)OCc1cc(Cl)cc(C(F)(F)F)c1)C2", "Result": "≥ 7.00"}
{"Compound": "O=C(OCc1cc(Cl)cc(C(F)(F)F)c1)N1CCCn2nc(C3CN4CCC[C@@H]4CO3)cc2C1 (single isomer, unassigned) [Example 252A]", "Result": "≥ 7.00"}
{"Compound": "CC1c2cc(C(=O)O)nn2CCCN1C(=O)CCc1cc(Cl)cc(Cl)c1 (stereo not drawn)", "Result": "≥ 6.30"}
{"Compound": "CC1CNCCN1C(=O)c1cc2n(n1)CCCN(C(=O)OCc1cc(Cl)cc(C(F)(F)F)c1)C2 (stereo not drawn)", "Result": "≥ 7.00"}
{"Compound": "CN1CCN(c2cc3n(n2)CCN(C(=O)OCc2cc(C(F)(F)F)cc(C(F)(F)F)c2)C3)CC1", "Result": "≥ 7.00"}
{"Compound": "CC(c1cc2n(n1)CCCN(C(=O)OCc1cc(Cl)cc(Cl)c1)C2)N1C2CCCC1CCC2 (stereo not drawn)", "Result": "≥ 6.60"}
{"Compound": "CCOC(=O)c1cc2n(n1)CCCN(C(=O)OCc1cc(Cl)cc(C(F)(F)F)c1)C2", "Result": "≥ 7.00"}
{"Compound": "CN1CCN(C(=O)c2cc3n(n2)CCCN(C(=O)OCc2cc(Cl)cc(C(F)(F)F)c2)C3)C2(CCC2)C1", "Result": "≥ 7.00"}
{"Compound": "CN1CCC(Nc2cc3n(n2)CCCN(C(=O)OCc2cc(C(F)(F)F)cc(C(F)(F)F)c2)C3)CC1", "Result": "≥ 6.60"}
{"Compound": "CN1CCC(c2cc3n(n2)CCCN(C(=O)OCc2cc(C(F)(F)F)cc(C(F)(F)F)c2)C3)CC1", "Result": "≥ 7.00"}
{"Compound": "C[C@@H]1CNC[C@@H](C)N1C(=O)c1cc2n(n1)CCCN(C(=O)OCc1cc(Cl)cc(C(F)(F)F)c1)C2", "Result": "≥ 7.00"}

Source listed as patent US20160039825A1.
